- Experimental target: E9/A20/D4 proteins (molluscum mD4) (Molluscum contagiosum virus)
- Sequence (Q98260 1-226): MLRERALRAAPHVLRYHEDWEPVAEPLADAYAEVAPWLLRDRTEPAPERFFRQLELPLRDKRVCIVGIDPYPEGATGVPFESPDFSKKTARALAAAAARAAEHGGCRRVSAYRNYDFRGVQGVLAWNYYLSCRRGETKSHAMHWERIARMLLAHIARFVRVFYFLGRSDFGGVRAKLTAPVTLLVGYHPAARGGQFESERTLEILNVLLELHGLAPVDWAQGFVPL
- Method summary: biochemical
Label Criterion met when IC50 is strictly below 50 µM; otherwise label Criterion not met.

The examples below pair each entry with its known result.
O=C(NCCc1ccccn1)Nc1snnc1C(=O)NCc1ccc(Cl)cc1 [Compound 185] | Criterion not met
O=C(NCc1ccc(Cl)cc1)c1nnsc1NC(=O)C1CCN(c2ccccn2)CC1 [Compound 167] | Criterion not met
O=C(NCc1ccc(Cl)cc1)c1nnsc1NC(=O)N1CCN(c2ccccc2F)CC1 [Compound 168] | Criterion met
CCC(C(=O)Nc1sc(C(N)=O)c(C)c1C(=O)OC)c1ccc(F)cc1 (centres unmarked) [Compound 99] | Criterion met

Task item: Given CCC(C(=O)Nc1sc(C(N)=O)c(C)c1C(=O)OC)c1ccccc1 (single isomer, unassigned) [Compound 29] , is recorded IC50 strictly lower than 50 µM?
Reply: Criterion met

Task item: Try O=C(NCc1ccc(F)cc1)c1ccsc1NC(=O)N1CCN(c2ccccn2)CC1 [Compound 181] next.
Reply: Criterion not met

Task item: Here is the next compound: O=C(NCc1ccc(Cl)cc1)c1ccsc1NC(=O)N1CCN(c2ccccn2)CC1 [Compound 111]
Reply: Criterion not met

----------
- Test system: VV
- Method summary: microbe, parasite or virus in culture
- Format: cell-based, vaccinia virus
- Measurement parameters: read-out: VV EC50
Quantity measured: EC50 (µM)
Answers are plain numbers, in µM.

Task item: Looking for the measured EC50 of CC[C@@H](C(=O)Nc1sc(C(N)=O)c(C)c1C(=O)OC)c1ccccc1 [Compound 17] , can you help?
Reply: 26.8

----------
Give measured pIC50 for each item. Keep answers brief.
- Experimental target: E9/A20/D4 proteins (molluscum mD4) (Molluscum contagiosum virus)
- Method summary: biochemical
pIC50: −log10 of the molar value.

Observe how each entry below is paired with its result.
O=C(NCCN1CCOCC1)Nc1snnc1C(=O)NCc1ccc(Cl)cc1 | < 4.00
CCC(C(=O)Nc1scnc1C(=O)NCc1ccc(Cl)cc1)c1ccccc1 (stereo not drawn) | < 4.00

Proceed to the following item.
Task item: Could you share what pIC50 was measured for "O=C(NCc1ccccc1)c1nnsc1NC(=O)N1CCN(c2ccccn2)CC1" , tested on E9/A20/D4 proteins (molluscum mD4) (Molluscum contagiosum virus)?
Reply: < 4.00

----------
- System: VV
- Method summary: microbe, parasite or virus in culture
- Assay type: cell-based, vaccinia virus
- Measurement parameters: Orthopoxvirus vaccinia, BSC-1, read-out: VV EC50
Quantity measured: EC50 (µM)
Answers are plain numbers, in µM.

Would you mind listing EC50 for each of the following molecules?
1. CCOC(=O)c1sc(NC(=O)C(CC)c2ccccc2)cc1C (centres unmarked) [Compound 72]
2. COC(=O)c1c(NC(=O)C2(c3ccccc3)CC2)sc(C(N)=O)c1C [Compound 36]
3. CCC(C(=O)Nc1sc(C(=O)N(CC)CC)c(C)c1C(=O)OC)c1ccccc1 (centres unmarked) [Compound 24]
4. CCC(C(=O)Nc1scc(C)c1C(=O)OC)c1ccccc1 (centres unmarked) [Compound 32]

Reply:
19.1
14.3
16.4
32.9

Report EC50 for every entry below.
1. CCOC(=O)c1c(NC(=O)C(CC)c2ccccc2)sc(C)c1CC (centres unmarked) [Compound 2]
2. CCC(C(=O)Nc1snc(C)c1C#N)c1ccccc1 (centres unmarked) [Compound 68]
3. CCC(C(=O)Nc1snc(C)c1C(=O)OC)c1ccccc1 (centres unmarked) [Compound 89]
4. COc1ccc(CN(Cc2ccc(OC)cc2)C(Cc2ccccc2)C(=O)Nc2sc(C(N)=O)c(C)c2C#N)cc1 (centres unmarked) [Compound 57]

Reply:
1. 36.6
2. 8.6
3. 29.3
4. 20.8
